# target_of_assay: LTA4-h (Homo sapiens, UniProt P09960)
# Construct: in human whole blood has been determined using an ex vivo assay; from tissue; host or cells: human whole blood (male and female donors)
# Sequence (P09960 1-611): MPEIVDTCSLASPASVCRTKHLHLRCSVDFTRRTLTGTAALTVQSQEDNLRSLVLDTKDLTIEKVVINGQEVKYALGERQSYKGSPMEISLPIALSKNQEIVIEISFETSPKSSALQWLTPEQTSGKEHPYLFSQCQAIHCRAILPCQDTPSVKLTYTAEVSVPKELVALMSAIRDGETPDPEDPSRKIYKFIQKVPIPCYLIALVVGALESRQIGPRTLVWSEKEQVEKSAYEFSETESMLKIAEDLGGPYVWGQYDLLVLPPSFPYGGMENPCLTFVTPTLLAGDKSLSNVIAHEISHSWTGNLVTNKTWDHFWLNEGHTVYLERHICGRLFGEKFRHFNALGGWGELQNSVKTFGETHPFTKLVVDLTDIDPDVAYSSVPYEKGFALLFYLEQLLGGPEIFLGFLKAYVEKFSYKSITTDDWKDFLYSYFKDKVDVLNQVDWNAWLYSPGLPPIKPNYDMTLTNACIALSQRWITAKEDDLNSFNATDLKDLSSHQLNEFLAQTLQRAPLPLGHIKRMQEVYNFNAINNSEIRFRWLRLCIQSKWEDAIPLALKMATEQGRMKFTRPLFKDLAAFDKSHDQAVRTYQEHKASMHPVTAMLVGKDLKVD
# method_summary: human whole blood ex vivo assay: A23187-stimulated LTB4 production measured by ELISA
# Type: cell-based
# cond: IC50 in human whole blood, male blood
value_kind: IC50 (nM)
Report the value in nM with no unit label.

[in] Under LTA4-h (Homo sapiens, UniProt P09960): IC50 value of `O=C(O)c1ccc(CN2C[C@@H]3C[C@H]2CN3Cc2ccc(Oc3ccc(-c4ncco4)cc3)cc2)cc1` ?
[out] 60
